MEASUREMENT_TARGET: human CA-IX (Homo sapiens)
Construct: purchased Acro CA9-H82E3
PROCEDURE_SUMMARY: Surface Plasmon Resonance (SPR) binding kinetics to recombinant human CA-IX (Biacore 8K, single-cycle kinetics, 1:1 binding model)
MEASUREMENT_CONTEXT: Chelated Metal: Lu-175; SPR, 25° C., pH 7.4; read-out: CAIX KD
Exercise: state measured Kd for each of the molecules provided.

Task item: Look at this molecule and give its reported Kd. NS(=O)(=O)c1nnc(NC(=O)C23CC(c4cn(CCNC(=O)[C@@H]5CN(C(=O)CN6CCN(CC(=O)O)CCN(CC(=O)O)CCN(CC(=O)O)CC6)CCN5C(=O)C[C@H](NC(=O)C[C@H](NC(=O)c5n[nH]c6ccc(F)cc56)C(=O)O)C(=O)O)nn4)(C2)C3)s1.[Lu+3]
Reply: < 1 nM

Task item: Look at this molecule and give its reported Kd. Cc1cc(C(=O)Nc2nnc(S(N)(=O)=O)s2)ccc1-c1cn(CCNC(=O)C2(NC(=O)CNC(=O)C3(C(N)=O)CCN(C(=O)CCCC(C)(c4ccc(O)cc4)c4ccc(O)cc4)CC3)CCN(C(=O)CC[C@H](C(=O)O)N3CCN(CC(=O)O)CCN(CC(=O)O)CCN(CC(=O)O)CC3)CC2)nn1.[Lu+3]
Reply: < 1 nM

Task item: Look at this molecule and give its reported Kd. CC(CCCC(=O)N1CCC(C(N)=O)(C(=O)NCC(=O)NC2(C(=O)NCCn3cc(C45CCC(c6cn7nc(S(N)(=O)=O)sc7n6)(CC4)CC5)nn3)CCN(C(=O)CC[C@H](C(=O)O)N3CCN(CC(=O)O)CCN(CC(=O)O)CCN(CC(=O)O)CC3)CC2)CC1)(c1ccc(O)cc1)c1ccc(O)cc1.[Lu+3]
Reply: < 1 nM

* * *

MEASUREMENT_TARGET: human CA-XII (Homo sapiens)
Construct: purchased Creative BioMart CA12-261H
Sequence (O43570 25-354): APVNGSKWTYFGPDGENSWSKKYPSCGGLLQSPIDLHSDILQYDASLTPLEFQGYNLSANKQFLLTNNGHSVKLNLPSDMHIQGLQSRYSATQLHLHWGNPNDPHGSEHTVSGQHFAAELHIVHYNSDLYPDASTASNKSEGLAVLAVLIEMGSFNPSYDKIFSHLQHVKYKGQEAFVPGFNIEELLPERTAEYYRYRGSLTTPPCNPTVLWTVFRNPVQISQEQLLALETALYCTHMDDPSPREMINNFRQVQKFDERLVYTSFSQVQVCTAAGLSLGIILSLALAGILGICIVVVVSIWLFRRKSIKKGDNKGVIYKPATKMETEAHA
PROCEDURE_SUMMARY: Surface Plasmon Resonance (SPR) binding kinetics to recombinant human CA-XII (Biacore 8K, single-cycle kinetics, 1:1 binding model)
MEASUREMENT_CONTEXT: Chelated Metal: Lu-175, 25° C., pH 7.4, read-out: CAXII KD
pKd: −log10 of the molar value.
MEASURED_ENDPOINT: pKd

Task item: Look at this molecule and give its reported pKd. NS(=O)(=O)c1nnc(NC(=O)C23CCC(c4cn(CCNC(=O)[C@@H]5CN(C(=O)CN6CCN(CC(=O)O)CCN(CC(=O)O)CCN(CC(=O)O)CC6)CCN5C(=O)CC[C@H](NC(=O)C[C@H](NC(=O)CCC5CCCCC5)C(=O)O)C(=O)O)nn4)(CC2)CC3)s1.[Lu+3] [Compound 109.44]
Reply: > 9.00

Task item: Look at this molecule and give its reported pKd. NS(=O)(=O)c1nnc(NC(=O)C23CC(c4cn(CCNC(=O)[C@@H]5CN(C(=O)CN6CCN(CC(=O)O)CCN(CC(=O)O)CCN(CC(=O)O)CC6)CCN5C(=O)C[C@H](NC(=O)C[C@H](NC(=O)c5ccc(S(F)(F)(F)(F)F)cc5)C(=O)O)C(=O)O)nn4)(C2)C3)s1.[Lu+3] [Compound 109.16]
Reply: 8.00 to 8.60

Task item: Look at this molecule and give its reported pKd. NS(=O)(=O)c1nnc(NC(=O)C23CC(c4cn(CCNC(=O)[C@H]5CN(C(=O)CN6CCN(CC(=O)O)CCN(CC(=O)O)CCN(CC(=O)O)CC6)CCN5C(=O)[C@@H]5COCCN5C(=O)Cc5n[nH]c6ccccc56)nn4)(C2)C3)s1.[Lu+3] [Compound 107.18]
Reply: < 8.00

Task item: Look at this molecule and give its reported pKd. Cc1cc(C(=O)Nc2nnc(S(N)(=O)=O)s2)ccc1-c1cn(CCNC(=O)C2(NC(=O)CNC(=O)C3(C(N)=O)CCN(C(=O)CCCC(C)(c4ccc(O)cc4)c4ccc(O)cc4)CC3)CCN(C(=O)CC[C@H](C(=O)O)N3CCN(CC(=O)O)CCN(CC(=O)O)CCN(CC(=O)O)CC3)CC2)nn1.[Lu+3] [Compound 127.7]
Reply: < 8.00

Task item: Look at this molecule and give its reported pKd. CC(CCCC(=O)N1CCC(C(=O)O)(C(=O)NCC(=O)N2CCN(C(=O)CN3CCN(CC(=O)O)CCN(CC(=O)O)CCN(CC(=O)O)CC3)C[C@@H]2C(=O)NCCn2cc(C34CCC(C(=O)Nc5nnc(S(N)(=O)=O)s5)(C3)C4)nn2)CC1)(c1ccc(O)cc1)c1ccc(O)cc1.[Lu+3] [Compound 107.24]
Reply: 8.00 to 8.60

Task item: Look at this molecule and give its reported pKd. NS(=O)(=O)c1nnc(NC(=O)C23CCC(c4cn(CCNC(=O)[C@@H]5CN(C(=O)CN6CCN(CC(=O)O)CCN(CC(=O)O)CCN(CC(=O)O)CC6)CCN5C(=O)CC[C@H](NC(=O)C[C@H](NC(=O)c5n[nH]c6ccccc56)C(=O)O)C(=O)O)nn4)(CC2)CC3)s1.[Lu+3] [Compound 109.50]
Reply: > 9.00

Task item: Look at this molecule and give its reported pKd. CC(CCC(=O)N[C@@H](CC(=O)N[C@@H](CCC(=O)NC1(C(=O)NCCOCCOCCNC(=O)CN2CCN(CC(=O)O)CCN(CC(=O)O)CCN(CC(=O)O)CC2)CCN(C(=O)Cn2cc(CCCC(=O)Nc3nnc(S(N)(=O)=O)s3)nn2)CC1)C(=O)O)C(=O)O)(c1ccc(O)cc1)c1ccc(O)cc1.[Lu+3] [Compound 103.2]
Reply: 8.00 to 8.60
